Exercise: for every item that follows, state its recorded protein stability index.
B1: BTBD10 (parent)
chain: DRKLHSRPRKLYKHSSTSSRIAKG

# Variants of: B1
# assay-procedure: protein stability index of a GFP-peptide fusion (GPS, HEK-293T) (PSI 1-6); higher = more stable;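 further: lentivirally expressed fusions sorted by FACS into six bins by GFP to DsRed ratio, PSI derived from sequencing read proportions per bin multiplied by bin number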
# measurement-conditions: c terminus: a fixed tail appended
Give bare numbers.

Illustrative cases are given below, each with its answer.
In [3]: df
Out[3]:
   variant_key  recorded_value
0         K10G            3.52
1         G24D            3.65
2         K10F            3.18
3         K23F            3.56
4          D1S            3.89
5         K23A            3.72

For each of the variants below, state protein stability index.
1. S6L
2. H14E
3. H5T
4. K23H
5. L11S
6. S18A
7. D1T

[2.4, 4.13, 4.17, 3.41, 4.57, 4.42, 3.16]
